experiment: surface tension by Du Noüy ring method, Krüss K20 EasyDyne tensiometer; format: physicochemical; details: 15.0 % w/w solvent in water, room temperature
METRIC: Surface tension (dynes/cm)
Express the result in dynes/cm but write the number alone.

Reported Surface tension for CCOCCOCCO was 49.7

Reported Surface tension for CC(O)CO (stereo not shown) was 58.3

Reported Surface tension for CO[C@H]1CO[C@H]2[C@@H]1OC[C@H]2OC [Dimethyl Isosorbide, dimethyl isosorbide] was 43.5

Reported Surface tension for OCCCO was 61.0

Reported Surface tension for CC1COC(=O)O1 (stereo not shown) [Propylene Carbonate, propylene carbonate] was 44.1

Reported Surface tension for CC(C)O was 33.1

Reported Surface tension for CCO was 42.2
